- System: Aspergillus brasiliensis
- ASSAY METHOD TEXT: Antifungal activity against Aspergillus brasiliensis PTCC 5011 assessed as diameter of inhibition zone at 200 ug per disc after 72 hrs by agar disc diffusion method
- Format: functional
- SETUP CONDITIONS: PTCC 5011, 72 h, read-out: DIZ
In this section we review reported zone of inhibition at 200 µg/disc values for a set of molecules.
QUANTITY KIND: zone of inhibition at 200 µg/disc

O=[N+]([O-])c1ccc2oc(C3=Nc4ccccc4SC(c4cccc5ccccc45)C3)cc2c1 (stereo unspecified)	< 6 mm
Brc1ccc2oc(C3=Nc4ccccc4SC(c4cccc5ccccc45)C3)cc2c1 (stereo unspecified)	< 6 mm
Fc1ccccc1C1CC(c2cc3cc(Br)ccc3o2)=Nc2ccccc2S1 (stereo unspecified)	< 6 mm
O=[N+]([O-])c1ccc2oc(C3=Nc4ccccc4SC(c4ccccc4F)C3)cc2c1 (stereo unspecified)	< 6 mm
O=[N+]([O-])c1cccc(C2CC(c3cc4cc(Br)ccc4o3)=Nc3ccccc3S2)c1 (stereo unspecified)	23 mm
c1ccc2c(c1)N=C(c1cc3ccccc3o1)CC(c1cccc3ccccc13)S2 (stereo unspecified)	< 6 mm

====

In this section we review reported zone of inhibition at 200 µg/disc values for a set of molecules.
- Test system: Bacillus spizizenii
- ASSAY METHOD TEXT: Antibacterial activity against Bacillus subtilis ATCC 6633 assessed as diameter of inhibition zone at 200 ug per disc after 24 hrs by agar disc diffusion method
- Format: functional
- SETUP CONDITIONS: ATCC 6633, 24 h, read-out: DIZ
QUANTITY KIND: zone of inhibition at 200 µg/disc (mm)

O=[N+]([O-])c1cccc(C2CC(c3cc4cc(Br)ccc4o3)=Nc3ccccc3S2)c1 (configuration not stated)	19
Brc1ccc2oc(C3=Nc4ccccc4SC(c4cccc5ccccc45)C3)cc2c1 (configuration not stated)	12
O=[N+]([O-])c1ccc2oc(C3=Nc4ccccc4SC(c4cccc5ccccc45)C3)cc2c1 (configuration not stated)	15
CO[C@H]1/C=C/O[C@@]2(C)Oc3c(C)c(O)c4c(O)c(c(/C=N/N5CCN(C)CC5)c(O)c4c3C2=O)NC(=O)/C(C)=C\C=C\[C@H](C)[C@H](O)[C@@H](C)[C@@H](O)[C@@H](C)[C@H](OC(C)=O)[C@@H]1C [RIFAMPIN]	13

====

- System: Shigella dysenteriae
- ASSAY METHOD TEXT: Antibacterial activity against Shigella dysenteriae PTCC 1188
- Type: functional
Calls of active or inactive are those of the source. The calls are words filed in the database; no cut-off is given here.
QUANTITY KIND: MIC

O=[N+]([O-])c1cccc(C2CC(c3cc4cc(Br)ccc4o3)=Nc3ccccc3S2)c1 (stereo unspecified)	inactive
O=[N+]([O-])c1ccc2oc(C3=Nc4ccccc4SC(c4cccc5ccccc45)C3)cc2c1 (stereo unspecified)	inactive
O=[N+]([O-])c1ccc2oc(C3=Nc4ccccc4SC(c4ccccc4F)C3)cc2c1 (stereo unspecified)	inactive
Fc1ccccc1C1CC(c2cc3cc(Br)ccc3o2)=Nc2ccccc2S1 (stereo unspecified)	inactive
CO[C@H]1/C=C/O[C@@]2(C)Oc3c(C)c(O)c4c(O)c(c(/C=N/N5CCN(C)CC5)c(O)c4c3C2=O)NC(=O)/C(C)=C\C=C\[C@H](C)[C@H](O)[C@@H](C)[C@@H](O)[C@@H](C)[C@H](OC(C)=O)[C@@H]1C [RIFAMPIN]	0.25 µg/mL
Brc1ccc2oc(C3=Nc4ccccc4SC(c4cccc5ccccc45)C3)cc2c1 (stereo unspecified)	50 µg/mL

====

- System: Shigella dysenteriae
- ASSAY METHOD TEXT: Antibacterial activity against Shigella dysenteriae PTCC 1188 assessed as diameter of inhibition zone at 200 ug per disc after 24 hrs by agar disc diffusion method
- Format: functional
- SETUP CONDITIONS: PTCC 1188, 24 h, read-out: DIZ
In this section we review reported zone of inhibition at 200 µg/disc values for a set of compounds.
QUANTITY KIND: zone of inhibition at 200 µg/disc

O=[N+]([O-])c1ccc2oc(C3=Nc4ccccc4SC(c4cccc5ccccc45)C3)cc2c1 (stereo unspecified)	< 6 mm
Brc1ccc2oc(C3=Nc4ccccc4SC(c4cccc5ccccc45)C3)cc2c1 (stereo unspecified)	14 mm
CO[C@H]1/C=C/O[C@@]2(C)Oc3c(C)c(O)c4c(O)c(c(/C=N/N5CCN(C)CC5)c(O)c4c3C2=O)NC(=O)/C(C)=C\C=C\[C@H](C)[C@H](O)[C@@H](C)[C@@H](O)[C@@H](C)[C@H](OC(C)=O)[C@@H]1C	8 mm
O=[N+]([O-])c1cccc(C2CC(c3cc4cc(Br)ccc4o3)=Nc3ccccc3S2)c1 (stereo unspecified)	< 6 mm
Fc1ccccc1C1CC(c2cc3cc(Br)ccc3o2)=Nc2ccccc2S1 (stereo unspecified)	< 6 mm
O=[N+]([O-])c1ccc2oc(C3=Nc4ccccc4SC(c4ccccc4F)C3)cc2c1 (stereo unspecified)	< 6 mm

====

- TARGET OF ASSAY: Cholinesterase (Equus caballus)
- Sequence (P81908 whole entry): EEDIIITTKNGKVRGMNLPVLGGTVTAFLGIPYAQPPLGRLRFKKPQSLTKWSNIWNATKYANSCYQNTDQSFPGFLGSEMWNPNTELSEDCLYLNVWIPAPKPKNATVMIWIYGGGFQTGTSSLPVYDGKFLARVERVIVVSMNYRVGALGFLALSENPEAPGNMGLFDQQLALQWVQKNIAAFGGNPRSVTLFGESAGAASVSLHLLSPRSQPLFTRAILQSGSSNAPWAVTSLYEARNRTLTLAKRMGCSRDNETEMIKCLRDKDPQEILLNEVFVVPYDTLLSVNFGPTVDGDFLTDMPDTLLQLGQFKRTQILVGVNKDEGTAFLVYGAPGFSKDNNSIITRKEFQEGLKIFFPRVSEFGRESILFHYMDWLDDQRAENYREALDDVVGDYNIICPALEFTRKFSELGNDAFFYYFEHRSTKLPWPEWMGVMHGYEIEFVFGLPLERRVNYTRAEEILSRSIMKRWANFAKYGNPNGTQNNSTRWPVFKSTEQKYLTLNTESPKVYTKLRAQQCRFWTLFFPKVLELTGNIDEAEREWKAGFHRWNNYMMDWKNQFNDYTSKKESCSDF
- ASSAY METHOD TEXT: Inhibition of equine serum BChE using butyrylthiocholine iodide as substrate pretreated for 15 mins followed by substrate addition measured for 6 mins by Ellman's method
- SETUP CONDITIONS: read-out: IC50
pIC50: −log10 of the molar value.
In this section we review reported pIC50 values for a set of compounds.
QUANTITY KIND: pIC50

Cc1ccc(C2CC(c3cc4cc(Br)ccc4o3)=Nc3ccccc3S2)cc1 (stereo not given)	5.07
COc1ccc(C2CC(c3cc4ccccc4o3)=Nc3ccccc3S2)cc1 (stereo not given)	5.40
COc1cccc(C2CC(c3cc4ccccc4o3)=Nc3ccccc3S2)c1 (stereo not given)	5.39
O=[N+]([O-])c1ccc2oc(C3=Nc4ccccc4SC(c4cccc5ccccc45)C3)cc2c1 (stereo not given)	4.26
c1ccc2c(c1)N=C(c1cc3ccccc3o1)CC(c1cccc3ccccc13)S2 (stereo not given)	4.20
Oc1ccc(C2CC(c3cc4cc(Br)ccc4o3)=Nc3ccccc3S2)cc1 (stereo not given)	5.19
COc1ccccc1C1CC(c2cc3cc(Br)ccc3o2)=Nc2ccccc2S1 (stereo not given)	5.74
c1ccc2c(c1)N=C(c1cc3ccccc3o1)CC(c1c[nH]c3ccccc13)S2 (stereo not given)	4.22
O=[N+]([O-])c1ccc2oc(C3=Nc4ccccc4SC(c4ccccc4F)C3)cc2c1 (stereo not given)	4.66
COc1ccc(C2CC(c3cc4cc(Br)ccc4o3)=Nc3ccccc3S2)cc1 (stereo not given)	6.00
COc1cccc2cc(C3=Nc4ccccc4SC(c4ccccc4)C3)oc12 (stereo not given)	5.60
O=[N+]([O-])c1ccc2oc(C3=Nc4ccccc4SC(c4c[nH]c5ccccc45)C3)cc2c1 (stereo not given)	4.14
Oc1ccc(C2CC(c3cc4ccccc4o3)=Nc3ccccc3S2)cc1 (stereo not given)	4.85
COc1cccc(C2CC(c3cc4cc(Br)ccc4o3)=Nc3ccccc3S2)c1 (stereo not given)	6.00
Brc1ccc2oc(C3=Nc4ccccc4SC(c4c[nH]c5ccccc45)C3)cc2c1 (stereo not given)	4.55
COc1ccccc1C1CC(c2cc3ccccc3o2)=Nc2ccccc2S1 (stereo not given)	5.32
Brc1ccc2oc(C3=Nc4ccccc4SC(c4ccccc4)C3)cc2c1 (stereo not given)	5.07
Brc1ccc2oc(C3=Nc4ccccc4SC(c4cccc5ccccc45)C3)cc2c1 (stereo not given)	4.77
COc1cccc2cc(C3=Nc4ccccc4SC(c4ccc(O)cc4)C3)oc12 (stereo not given)	5.39
Fc1ccccc1C1CC(c2cc3cc(Br)ccc3o2)=Nc2ccccc2S1 (stereo not given)	4.86

====

- Test system: Bacillus spizizenii
- ASSAY METHOD TEXT: Antibacterial activity against Bacillus subtilis ATCC 6633 assessed as diameter of inhibition zone at 200 ug per disc after 24 hrs by agar disc diffusion method
- Type: functional
- SETUP CONDITIONS: ATCC 6633, 24 h, read-out: DIZ
QUANTITY KIND: zone of inhibition at 200 µg/disc

Fc1ccccc1C1CC(c2cc3cc(Br)ccc3o2)=Nc2ccccc2S1 (stereo not drawn)	< 6 mm
O=[N+]([O-])c1ccc2oc(C3=Nc4ccccc4SC(c4ccccc4F)C3)cc2c1 (stereo not drawn)	< 6 mm
c1ccc2c(c1)N=C(c1cc3ccccc3o1)CC(c1cccc3ccccc13)S2 (stereo not drawn)	< 6 mm
